Just for reference, patent US20210023012A1 is where these values come from.

Assay: Steady-state pharmacokinetics of film-coated granules in pediatric subjects by age group
Type: in vivo, human
Conditions: human, in vivo, oral, Week 2; 9 to <12 years old; post-adjustment, 5 sachets, 250 mg/100 mg Compound 1/Compound 2; N 10; film-coated granules; read-out: AUC
Experimental: The study was designed to assess the steady state AUC and to assess the pharmacokinetics (PK) of Compound 1/Compound 2 in pediatric subjects by age group. […] Subjects were enrolled in this study and dosed with film-coated granules containing Compound 1/Compound 2 as generally described above in Example 3. [table] An intensive PK sample draw was done at the Week 2 visit with blood samples taken immediately prior to dose (0 hour) and at 2, 4, 6, and 12 hours post dose.
PROPERTY_LABEL: AUC

INSERT INTO measurements (compound_string, val) VALUES
  ('COC(=O)N[C@H](C(=O)N1CCC[C@H]1c1nc2cc([C@H]3CC[C@H](c4cc5nc([C@@H]6CCCN6C(=O)[C@@H](NC(=O)OC)[C@@H](C)OC)[nH]c5cc4F)N3c3cc(F)c(N4CCC(c5ccc(F)cc5)CC4)c(F)c3)c(F)cc2[nH]1)[C@@H](C)OC', '2300 ng·h/mL');
